B1: glmS ribozyme (parent)
chain: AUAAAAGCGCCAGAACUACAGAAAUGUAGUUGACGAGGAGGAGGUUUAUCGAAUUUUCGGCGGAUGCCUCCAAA

# Variants of: B1
# EXPERIMENT_NOTES: self-cleavage kobs at 10000 uM GlcN6P; higher = faster cleavage; RNA array
# CONDITION_LABEL: with glucosamine-6-phosphate
Fewer inactive variants are shown than the library holds.
I would appreciate it if you labelled entries yes when self-cleavage kobs at 10000 uM GlcN6P is 0.0005 s⁻¹ or higher, otherwise no.

Some solved cases for reference:
[[record]]
chain = "AUAAAAGCGCCAGAACUACAGAAAUGUAGUUGACGAGGAGGAGUUUUAUCGAGUUUUCGGCGGAUGCCUCCAAA [G44U A53G]"
qualitative_label = "no"

[[record]]
chain = "AUAAAAGCGCCAGAACUACAGAAAUGUAGUUGACGAGGAGGUGAUUUAUCGAAUUUUCGGCGGAGGCCUCCAAA [A42U G44A U65G]"
qualitative_label = "no"

[[record]]
chain = "AUAAAAGCGCCAGAACUACAGAAAUGUAGUUGACGAGGAGGAGGUUUAUCGAAUGUUCGGCGGAUGCCCCCAAA [U55G U69C]"
qualitative_label = "no"

[[record]]
chain = "AUAAACGCGCCAGAACUACAGAAAUGUAGUUGACGAGGAGGAGGUUUAUCGAUUUUUCGGCGGAUGCCUCCAAA [A6C A53U]"
qualitative_label = "no"


Entry AUAAAAGCGCCAGAACUACAGAAAUGUAGUGGACGAGGAGGAGGGUUAACGAAUUAUCGGCGGAUGCCUCCAAA [U31G U45G U49A U56A] : is its self-cleavage kobs at 10000 uM GlcN6P no less than 0.0005 s⁻¹?
no

Is self-cleavage kobs at 10000 uM GlcN6P at least 0.0005 s⁻¹? Consider AUAAAAGCGCCACAACUACAGAAAUGUAGUUGACGAGGAAGAGGUUUAUCGAAUUUUCGGCGGAUGCCUCCAAA [G13C G40A]
no

Is self-cleavage kobs at 10000 uM GlcN6P for AUAAAAGCGCCAGAACUACAGAAAUGUAGUUGACGAGGAGGAGGUUUUUGGAAUUUUCGGCGGAUGCCUCCAAA [A48U C50G] at or above 0.0005 s⁻¹?
no

Check if self-cleavage kobs at 10000 uM GlcN6P >= 0.0005 s⁻¹ (inclusive). Item: AUAAAAGCGCCAGAACUACAGAAAUGUAGUUGACGAGGAGCAGGUUUAUCGAAUUUUCGGCGGAUGCCUCCAAA [G41C]
yes

Please tell me: is the variant AUAAAAGCGGCAGAAGUACAGAAAUGUAGUUGAUGAGGAGGACGUUUAUCGCAUCUUCGGCGGAUGCCUCCAAA [C10G C16G C34U G43C A52C U55C] at or over 0.0005 s⁻¹ in terms of self-cleavage kobs at 10000 uM GlcN6P?
no

Determine whether measured self-cleavage kobs at 10000 uM GlcN6P meets or exceeds 0.0005 s⁻¹ for AUAAAAGCGCCAGAACUACAGAAAUGUAGUUGACGAGGAGGAGGUUUAUCGAAUUUUCGGCGGAGUCCUCCAAA [U65G G66U]
yes

Dear colleague, could you confirm whether AUAAAAGCGCCAGAACUACAGAAAUGUAGUUGACUAGGAGGAGGUUUCUCGAAUUUUCGGCGGAUGCCUCCAAA [G35U A48C] has self-cleavage kobs at 10000 uM GlcN6P at or above 0.0005 s⁻¹?
no

Hi, just wondering whether AUAAAAGCGCCAGAAGUACAGAAAUGUAGUUGACGAGGGGGAGGUUUAUCGAAUUUUCGGCGGAUGCCUCCAAA [C16G A39G] shows self-cleavage kobs at 10000 uM GlcN6P of 0.0005 s⁻¹ or higher.
yes

Given the entry AUAAAAGCGCCAUAACUACAGAAAUGUAGUUGACGAGGAGGAGGUUUAUCGAAGUUUCGGCGGAUGCCUCCAAA [G13U U54G] , answer whether its self-cleavage kobs at 10000 uM GlcN6P meets or surpasses 0.0005 s⁻¹.
yes

Threshold query (self-cleavage kobs at 10000 uM GlcN6P >= 0.0005 s⁻¹) on AUAAAAGUGCUCGAACUACAGAAAUGUAGUUGACGAGGAGGAGGUUUGUCGAAUUUUCGGCAGAUGUCUCCAAA [C8U C11U A12C A48G G62A C67U]
no

# bool: self-cleavage kobs at 10000 uM GlcN6P of AUAAAAGCGCCAGAACUACAGAAAUGUAGUUGACGAGGAGGGGGAUUAUCGAAUUUUCGGCGGACGCCUCCAAA [A42G U45A U65C] >= 0.0005 s⁻¹
yes

Quick check, self-cleavage kobs at 10000 uM GlcN6P >= 0.0005 s⁻¹? AUAAAAGCGCCAGAGCUACAGAAAUGUAGUGGACGAGGUGGAGGUUUAUCGAAUUUUCGGCGGAUGCCUCCAAA [A15G U31G A39U]
yes

Textbook exercise: given the entry AUAAAAGCGCCAGAACUACAGAAAUGUAGUCGACGAAGAGGAGGUUUAUCGAAUUUUCAGUGGAUACCUCCAAA [U31C G37A G59A C61U G66A] , state whether its self-cleavage kobs at 10000 uM GlcN6P is greater than or equal to 0.0005 s⁻¹.
no

Reported self-cleavage kobs at 10000 uM GlcN6P at or above 0.0005 s⁻¹? AUAAAAGCGCCCAAACUACAGAAAUGUAGUUGACGAGGAGGAGGUUUAUCGAAUUUUCGGCGGAUGCCUCCAAA [A12C G13A]
no

Tell me whether self-cleavage kobs at 10000 uM GlcN6P is at least 0.0005 s⁻¹ here: AUAAAAGCGCCACAACUACAGAAAUGUAGUUGACGAGGAGGCGGUUUAUUGAAUUUUCGGCGGAUGCCUCCAAA [G13C A42C C50U]
no

Hi team, for AUAAACGCCCUAGAACUACAGAAAUGUAGUUGAGGAGAAGGAGGUUUAUCGAAUCUUCAGCGGAUGUCUCCAAA [A6C G9C C11U C34G G38A U55C G59A C67U] , is the recorded self-cleavage kobs at 10000 uM GlcN6P at or above 0.0005 s⁻¹?
no
